# assayedSystem: Hfq G34A (Escherichia coli, UniProt P0A6X3 1-102, G34A)
# experimentNotes: ITC; 5 mM MgCl2; N 0.83 RNA/hexamer; second weaker event offset; ITC: 20 mM Tris-HCl pH 7.5, 100 mM NaCl, 20 mM KCl, 30°C; plus 5 mM MgCl2 for U6; Hfq hexamer 10-18 µM in cell
# conditionsUsed: protein: recombinant; chain copies: 6; single strand
propertyLabel: Kd
# include the unit after the value

Q: Given the entry UUUUUU (ssRNA) [U6] , report its measured Kd.
Ans: 19.3 nM
